The reported measurements were obtained from patent US20240366589A1.

Measured Prompt Rat NHE3 pIC50 accompanies every entry in the list below.
Molecular target: Rat NHE3 (Rattus norvegicus)
Construct: expressed in transfected cells; host or cells: Opossum kidney (OK) cells (ATCC), electroporation
Sequence (P26433 29-831): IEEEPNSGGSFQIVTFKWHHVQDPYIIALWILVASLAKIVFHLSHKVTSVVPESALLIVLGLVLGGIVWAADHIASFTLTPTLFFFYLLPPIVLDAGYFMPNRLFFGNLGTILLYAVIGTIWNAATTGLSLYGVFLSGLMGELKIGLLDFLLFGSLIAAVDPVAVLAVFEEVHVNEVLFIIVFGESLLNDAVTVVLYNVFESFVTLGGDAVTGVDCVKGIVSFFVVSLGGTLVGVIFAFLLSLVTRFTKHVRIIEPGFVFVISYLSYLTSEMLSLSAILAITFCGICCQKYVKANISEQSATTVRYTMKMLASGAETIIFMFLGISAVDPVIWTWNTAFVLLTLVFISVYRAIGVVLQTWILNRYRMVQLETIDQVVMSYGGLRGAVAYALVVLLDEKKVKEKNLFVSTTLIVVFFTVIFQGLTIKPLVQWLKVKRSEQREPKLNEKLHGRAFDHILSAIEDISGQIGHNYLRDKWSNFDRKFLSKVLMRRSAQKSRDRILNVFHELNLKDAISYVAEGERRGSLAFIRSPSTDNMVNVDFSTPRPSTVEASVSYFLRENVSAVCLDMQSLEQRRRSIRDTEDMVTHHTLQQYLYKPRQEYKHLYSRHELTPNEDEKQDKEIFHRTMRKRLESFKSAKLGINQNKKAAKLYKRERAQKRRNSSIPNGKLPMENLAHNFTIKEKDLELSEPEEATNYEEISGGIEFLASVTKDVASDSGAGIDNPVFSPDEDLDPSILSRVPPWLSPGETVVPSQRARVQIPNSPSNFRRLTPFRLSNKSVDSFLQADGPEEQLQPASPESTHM
Test: Cell-based NHE3 activity under prompt conditions (OK cells, BCECF pH recovery), rat NHE3
Settings: prompt conditions
Protocol: Cell-based activity under Prompt Conditions. Rat or human NHE3-mediated Na^+-dependent H antiport was measured using a modification of the pH sensitive dye method originally reported by Paradiso (PNAS USA. 81:7436-7440, 1984). Opossum kidney (OK) cells were obtained from the ATCC and propagated per their instructions. […]

Example cases with answers are listed next.
CN1Cc2c(Cl)cc(Cl)cc2[C@H](c2cccc(S(=O)(=O)NCCOCCOCCNC(=O)NCCN(CCNC(=O)NCCOCCOCCNS(=O)(=O)c3cccc([C@@H]4CN(C)Cc5c(Cl)cc(Cl)cc54)c3)C(=O)CCCCCCCCCCC(=O)N(CCNC(=O)NCCOCCOCCNS(=O)(=O)c3cccc([C@@H]4CN(C)Cc5c(Cl)cc(Cl)cc54)c3)CCNC(=O)NCCOCCOCCNS(=O)(=O)c3cccc([C@@H]4CN(C)Cc5c(Cl)cc(Cl)cc54)c3)c2)C1; <5.00
O=C(NCCCCNC(=O)NCCOCCOCCNS(=O)(=O)c1ccc(O[C@H]2c3cc(Cl)cc(Cl)c3C[C@@H]2N2CCCCC2)cc1)NCCOCCOCCNS(=O)(=O)c1ccc(O[C@H]2c3cc(Cl)cc(Cl)c3C[C@@H]2N2CCCCC2)cc1; <5.00

Could you now consider this next compound?
What value of Prompt Rat NHE3 pIC50 has been recorded for this entry: N=C(N)Nc1nc(-c2ccc(OCCOCCOCCOCCNC(=O)NCCOCCOCCNC(=O)CN(CCN(CC(=O)O)CC(=O)NCCOCCOCCNC(=O)NCCOCCOCCOCCOc3ccc(-c4nc(NC(=N)N)nc5ccc(Cl)cc45)cc3)CC(=O)O)cc2)c2cc(Cl)ccc2n1
8.00
